- Test system: MDA-MB-435 melanoma
- Assay Text: NCI-60 one-dose screen, 48 h (100 = growth as untreated, 0 = no growth, -100 = all killed)
- Recorded Conditions: 10 µM unless noted
Compounds without any hit were thinned out: in the full panel of roughly 83,000, 20% have a hit. The source made the active and inactive calls. The calls were made as follows: active = growth percent below 10; inactive = the rest.

- Molecule: "CCNC(=O)C#Cc1ccc2c(C(=Nc3ccc(CN(C)C)cc3)c3ccccc3)c(O)[nH]c2c1"
  growth: "14.7% (inactive)"
- Molecule: "O=S1(=O)OC(c2cc(Cl)c(O)c(Br)c2)(c2cc(Cl)c(O)c(Br)c2)c2ccccc21"
  growth: "124% (inactive)"
- Molecule: "Nc1cc(C(F)(F)F)c(-c2cc(N3CCOCC3)nc(N3CCOCC3)n2)cn1"
  growth: "-62.3% (active)"
- Molecule: "CCN(CC)CCCC(C)Nc1cc(-c2ccc(C(F)(F)F)cc2)c(C#N)c2nc3ccccc3n12 (centres undefined)"
  growth: "-64.8% (active)"
- Molecule: "NC1(C(=O)N[C@@H](CCO)c2ccc(Cl)cc2)CCN(c2ncnc3[nH]ccc23)CC1"
  growth: "26.3% (inactive)"
- Molecule: "ClCc1ccc(-c2ccc(Cn3cnc4nc(Cl)nc(Cl)c43)cc2)cc1"
  growth: "-19.5% (active)"
- Molecule: "CCOC(=O)c1sc(NC(=O)COc2ccc(/C=C3\\Cc4ccc(Cl)cc4C3=O)cc2)nc1C"
  growth: "105% (inactive)"
- Molecule: "CO[C@H]1C[C@@H]2CC[C@@H](C)[C@@](O)(O2)C(=O)C(=O)N2CCCC[C@H]2C(=O)O[C@H]([C@H](C)C[C@@H]2CC[C@@H](O)[C@H](OC)C2)CC(=O)[C@H](C)/C=C(\\C)[C@@H](O)[C@@H](OC)C(=O)[C@H](C)C[C@H](C)\\C=C/C=C/C=C/1C"
  growth: "36.9% (inactive)"
- Molecule: "CNC(=O)c1cc(Oc2cccc3nc(Nc4ccc(Oc5ccccc5)cc4)ccc23)ccn1"
  growth: "66.1% (inactive)"
- Molecule: "CC(=O)C1=C(C)NC(SCc2nnc(-c3ccc(C)cc3)o2)=NC1c1ccc(F)cc1 (centres undefined)"
  growth: "107% (inactive)"
- Molecule: "CCCNC(=O)c1cn2ncnc(Nc3cc(C(=O)NC4CC4)ccc3C)c2c1C"
  growth: "89.9% (inactive)"
- Molecule: "CC(C)(C)c1ccc(Cn2cc(CSc3nc4ccccc4s3)nn2)cc1"
  growth: "106% (inactive)"
- Molecule: "CC1CCC(n2cnc3c(Cl)ncnc32)O1 (centres undefined)"
  growth: "99.6% (inactive)"
- Molecule: "Clc1ccc2c(NCCNc3nc(N4CCCC4)nc4ccccc34)ccnc2c1"
  growth: "-41.3% (active)"
